The reported measurements were obtained from the supplement of paper PMC13380429.

# System: U2OS
# Method Notes: cell viability relative to DMSO; higher = less toxic
# Reported Conditions: 72 h; 10000 nM
In this section we review reported cell viability values for a set of compounds.
Property Name: cell viability (%)

>>> df
                                smiles_code   property_name  quantitative_result
0  CN[C@H](C(=O)N[C@H](C(=O)N(C)[C@H](/C=C(\C)C(=O)O)C(C)C)C(C)(C)C)C(C)(C)c1ccccc1  cell viability                 17.7
1  C[C@H](N/C(=N/C#N)Nc1cccc2ncccc12)c1ccccc1  cell viability                  101
2         NS(=O)(=O)c1nn2cc(-c3ccccc3)nc2s1  cell viability                  100
3  CNC(=O)c1ccc(Nc2ncc(C(F)(F)F)c(NCc3nccnc3N(C)S(C)(=O)=O)n2)cc1  cell viability                   75
4  CS(=O)(=O)c1ccc(C2=C(c3ccccc3)C(=O)OC2)cc1  cell viability                 99.5
5  Fc1ccc(C(OCCN2CCN(CCCc3ccccc3)CC2)c2ccc(F)cc2)cc1  cell viability                 72.4
6                           O=C(O)C1=CCCNC1  cell viability                  102

---

# System: HepG2
# Method Notes: cell viability relative to DMSO; higher = less toxic
# Reported Conditions: 72 h; 10000 nM
In this section we review reported cell viability values for a set of compounds.
Property Name: cell viability (%)

In [3]: df
Out[3]:
                                    compound   property_name  quantitative_result
 0  C[N+]1(C)[C@@H]2CC[C@H]1C[C@@H](OC(=O)C(O)c1ccccc1)C2 (stereo partly drawn) [homatropine-methylbromide]  cell viability                 98.9
 1                   O=c1[nH]cc(F)c(=O)[nH]1  cell viability                 54.4
 2  Cc1noc2c1-c1ccccc1C(c1ccc(Cl)cc1)=N[C@H]2CC(N)=O  cell viability                 49.4
 3  CCC(C)(C)C(=O)C(=O)N1CCC[C@H]1C(=O)OCCCc1cccnc1  cell viability                 91.4
 4         NS(=O)(=O)c1nn2cc(-c3ccccc3)nc2s1  cell viability                 94.6
 5  COc1cc(NC(=O)c2ccc(-c3ccc(Cl)cc3)o2)cc(OC)c1  cell viability                  102
 6  CCN1CCCC1CNC(=O)c1cc(S(=O)(=O)CC)c(N)cc1OC (stereo not drawn) [amisulpride]  cell viability                  102
 7  CCc1ccc(OCc2ccccc2C(=O)Nc2ccc3nc(C)cc(N)c3c2)cc1  cell viability                 -0.1
 8        Cc1ccc(C(=O)Cn2c3c(sc2=N)CCCC3)cc1  cell viability                   99
 9  N#C[C@H](O[C@@H]1O[C@H](CO[C@@H]2O[C@H](CO)[C@@H](O)[C@H](O)[C@H]2O)[C@@H](O)[C@H](O)[C@H]1O)c1ccccc1  cell viability                 96.6
10  CCC(NC(C)C)C(O)c1ccc(O)c(O)c1 (stereo not drawn)  cell viability                  102
11  O=C(Nc1c(-c2cccs2)nc2ccccn12)c1ccc(Cl)cc1  cell viability                 91.4
12  C[N+]1(C)CCC(OC(=O)C(O)(c2ccccc2)C2CCCC2)C1 (stereo not drawn) [glycopyrrolate]  cell viability                  105
13                       c1ccc(CC2=NCCN2)cc1  cell viability                 99.9
14  Cn1cncc1[C@@](N)(c1ccc(Cl)cc1)c1ccc2c(c1)c(-c1cccc(Cl)c1)cc(=O)n2C  cell viability                 23.3
15  O=C(Nc1cccc(C(F)(F)F)c1)Nc1cc(S(=O)(=O)NC2CC2)ccc1-c1ccsc1  cell viability                 86.5
16  CCCCCCOC(=O)CCC(=O)CN [hexaminolevulinate]  cell viability                  101
17  O=[N+]([O-])c1cc2nc(O)c(O)nc2cc1[N+](=O)[O-]  cell viability                  102

---

# System: U2OS
# Method Notes: cell viability relative to DMSO; higher = less toxic
# Reported Conditions: 72 h; 1 nM
In this section we review reported cell viability values for a set of compounds.
Property Name: cell viability (%)

                                   compound  system_under_test  unit_abbreviation  quantitative_result
0  COc1ccc2[nH]c([S@@+]([O-])Cc3ncc(C)c(OC)c3C)nc2c1 [esomeprazole]               U2OS                  %                  102
1  Cc1ccc(C(=O)Cn2c3c(sc2=N)CCCC3)cc1 [pifithrin-alpha]               U2OS                  %                 96.6
2           Cc1ncc(CO)c(C=O)c1O [pyridoxal]               U2OS                  %                 98.6
3  COc1ccc2c(c1)C(=O)N(CCc1ccc(S(=O)(=O)NC(=O)NC3CCCCC3)cc1)C(=O)C2(C)C [gliquidone]               U2OS                  %                   91
4  CN(C)CC(=O)Nc1ccc2[nH]c(=O)c3ccccc3c2c1 [PJ-34]               U2OS                  %                 92.2
5  CN(C)CCCN1c2ccccc2CCc2ccccc21 [imipramine]               U2OS                  %                  101
6  CSc1nc(N)cc(Oc2ccc(-c3nnc(Nc4cccc(C(F)(F)F)c4)[nH]3)cc2)n1 [KG-5]               U2OS                  %                  102
7  C=CC(=O)N1CCC(Oc2cc3c(Nc4ccc(Cl)c(Cl)c4F)ncnc3cc2OC)CC1 [poziotinib]               U2OS                  %                 95.1
8  Cn1cncc1[C@@](N)(c1ccc(Cl)cc1)c1ccc2c(c1)c(-c1cccc(Cl)c1)cc(=O)n2C [tipifarnib]               U2OS                  %                 95.3
9  Cc1ccccc1C(OCCN(C)C)c1ccccc1 (stereo not given) [orphenadrine]               U2OS                  %                  106

---

In this section we review reported cell viability values for a set of molecules.
# Tested on: U2OS
# Method Notes: cell viability relative to DMSO; higher = less toxic
# Reported Conditions: 72 h; 10000 nM
Property Name: cell viability (%)

                                    molecule   property_name  quantitative_result
 0  CC(C)CNc1nc(-c2cccc3ncccc23)cn2c(-c3ccc(C(=O)NC4CC4)cc3)cnc12  cell viability                 70.6
 1  C[C@@]12CCc3occc3[C@H]1CC[C@@]13C[C@@H](CC[C@H]12)[C@@](O)(CO)C3  cell viability                 94.4
 2  O=C(Nc1cccc(C(F)(F)F)c1)Nc1cc(S(=O)(=O)NC2CC2)ccc1-c1ccsc1  cell viability                 87.5
 3        COc1cc(N)c(Cl)cc1C(=O)OCCCN1CCCCC1  cell viability                  102
 4  CC(OC(=O)OC1CCCCC1)OC(=O)C1=C(CSc2nnnn2CCN(C)C)CS[C@@H]2[C@H](NC(=O)Cc3csc(N)n3)C(=O)N12 (stereo not given in full)  cell viability                 94.8
 5  Cc1nc2ccc(Oc3ccc(F)cc3)cc2c(=O)n1C[C@H]1CCCN(C(C)C)C1  cell viability                 94.7
 6  COc1ccc2c(c1)C(=O)N(CCc1ccc(S(=O)(=O)NC(=O)NC3CCCCC3)cc1)C(=O)C2(C)C  cell viability                 95.9
 7     CCCCCCCC/C=C\CCCCCCCC(N)=O [oleamide]  cell viability                 91.3
 8  N=C(Nc1ccc(I)cc1)NC1C2CC3CC(C2)CC1C3 (stereo not given)  cell viability                 93.8
 9  CNC(=O)c1nn(C)c2c1C(C)(C)Cc1cnc(Nc3ccc(N4CCN(C)CC4)cc3)nc1-2  cell viability                  3.6
10  Cc1ccc(C(=O)C(C)CN2CCCCC2)cc1 (stereo not given)  cell viability                 98.1
11  CSc1nc(N)cc(Oc2ccc(-c3nnc(Nc4cccc(C(F)(F)F)c4)[nH]3)cc2)n1  cell viability                 34.7
12          Cn1cc(C[C@@H](N)C(=O)O)c2ccccc21  cell viability                  103
13  Cc1ncc(OC[C@@]2(c3cccc(F)c3)C[C@H]2C(=O)Nc2ccc(F)cn2)c(C)n1  cell viability                 98.1
14  COc1ccc2c(c1OC)C(=O)O[C@@H]2[C@H]1c2c(cc3c(c2OC)OCO3)CCN1C  cell viability                  102
15    Nc1ncnc2c1c(COc1cccc(Cl)c1)nn2C1CCOCC1  cell viability                 96.4
16  CCCCCCOC(=O)CCC(=O)CN [hexaminolevulinate]  cell viability                 98.4
17   CN(C(=O)c1c(O)c2ccccc2n(C)c1=O)c1ccccc1  cell viability                  101
18  C1CCN2C[C@@H]3C[C@@H](CN4CCCC[C@@H]34)[C@H]2C1 [sparteine-sulfate]  cell viability                  100
19                             OCc1cncc(F)c1  cell viability                 97.8
20  C[N+]1(C)CCC(OC(=O)C(O)(c2ccccc2)C2CCCC2)C1 (stereo not given) [glycopyrrolate]  cell viability                 95.1
21  CCn1c(=O)n([C@H]2CCCN(c3nccc(-c4cc5ccccc5o4)n3)C2)c2ccccc21  cell viability                 96.5
22  CCOc1ccc2nc3cc(N)ccc3c(N)c2c1 [ethacridine-lactate-monohydrate]  cell viability                 55.6
23  O=C1NC(=O)/C(=C/c2ccc(-c3ccc(F)cc3O)o2)S1  cell viability                 91.2
24      O=C(O)[C@H](Cc1ccccc1)NCc1ccc(Cl)cc1  cell viability                 94.5
